log10 of half-life overview
- Test Parameters: rat; liver microsomes; pH 7.4; 15.0 min; 1.0 µM
Scale: log10; quantity: half-life; unit before log: min

Examples from the recorded data:
# Compound, log10 of half-life
rows = [
    ("O=C(Nc1nc(-c2ccc(Cl)s2)cs1)c1cccs1", 1.29),
    ("C[C@H]1[C@@H](CCC(=O)Nc2ccc(F)cc2)O[C@@H]2O[C@]3(C)CC[C@@H]4[C@H](C)CC[C@@H]1[C@@]24OO3", 0.30),
    ("Cc1ccccc1C(=O)Nc1nc2c(s1)CC(C(C)(C)C)CC2 (stereo unspecified)", 1.02),
    ("O=C(c1ccc2c(c1)ncn2-c1ccc(Cl)cc1)N1CCCCC1", 0.99),
    ("COc1ccc(-c2cc(-c3cccc(NC(C)=O)c3)cn3cncc23)cn1", 1.20),
    ("CC(C)(C)c1ccc(S(=O)(=O)N2CCC(c3ccncc3)CC2)cc1", 1.16),
    ("Cc1ccnc(NC(=S)N2CCN(c3cccc(C(F)(F)F)c3)C[C@@H]2C)c1", 0.85),
    ("CC(C)n1cc(-c2ccc3c(c2)N(C)CC3)c2c(NS(=O)(=O)c3ccn(C)n3)ccnc21", 0.03),
    ("Cc1ccc(C)c(NC2=C(c3ccc(C(F)(F)F)cc3)C(=O)c3ccccc32)c1", 0.96),
    ("CCOc1ccc(CCNC(=O)c2ccc3ccccc3n2)cc1OCC", 0.23),
]

Which measured log10 of half-life value corresponds to CCOc1ccc(S(=O)(=O)NCc2cccnc2)cc1NC(=O)c1ccccc1F ?
0.45

Which measured log10 of half-life value corresponds to Fc1ccccc1-c1nc(NCc2ccc(-c3cccnc3)cc2)c2ccccc2n1 ?
0.77

====

- Test Parameters: rat; liver microsomes; pH 7.4; 15.0 min; 1.0 µM
Measured Quantity: half-life (min)
Express it in min; write the number only.

Which measured half-life value corresponds to Cc1cc(-c2nnc3n2CCCCC3)c(C)n1-c1ccccc1 ?
3.27

Which measured half-life value corresponds to Fc1ccc(-c2csc3ncnc(Sc4nnnn4C4CC4)c23)cc1 ?
4.2

Which measured half-life value corresponds to COc1ccc(Nc2cnc3ccc(-c4ccc(OC)c(OC)c4)nn23)cc1 ?
6.77

Which measured half-life value corresponds to CCc1cccc(C)c1Nc1c(-c2ccc(N(C)C)cc2)nc2ncccn12 ?
4.23

====

- Test Parameters: rat; liver microsomes; pH 7.4; 15.0 min; 1.0 µM
half-life overview
Express it in min; write the number only.

# Molecule, Measured Quantity, Measured Result
rows = [
    ("Clc1cccc(Nc2nc(-c3ccncc3)nc3ccccc23)c1", "half-life", 7.7),
    ("O=[S+]([O-])(Nc1ccccc1)c1ccc(NCc2ccc(Cl)cc2O)cc1", "half-life", 1.8),
    ("CC(C)c1ccccc1-c1ncc(F)c(NCC2CCN(c3cccnc3)CC2)n1", "half-life", 3),
    ("Cc1cc(NS(=O)(=O)c2ccc3c(c2)CCC(=O)N3)ccc1F", "half-life", 11.6),
    ("COc1ccc(-c2noc(CSc3nnc(Cc4ccccc4)n3-c3ccc(F)cc3)n2)cc1", "half-life", 1.69),
]

Which measured half-life value corresponds to Cc1c(-c2cccc3c(CCCOc4cccc5ccccc45)c(C(=O)O)n(Cc4cccnc4)c23)c(COc2ccc(N3CCN([S+](=O)([O-])N(C)C)CC3)cc2)nn1C ?
12

Which measured half-life value corresponds to CC(O)(C#Cc1ccc2c(c1)N(c1nc(N)ncc1Cl)CC2)c1nccs1 (stereo unspecified) ?
7.75
